System: JURKAT;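 also: ALL cell lines in 384-well plates, five doses spanning 10,000-fold, each plate scaled between vehicle and 100 µmol/L benzalkonium chloride controls, sDSS an adapted area-under-curve metric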
Assay explanation: selective drug sensitivity score (sDSS, relative to normal bone marrow) (sDSS (score)); higher = more potent and effective on the cell line relative to normal bone marrow cells
Measurement parameters: 72 h
Property label: selective drug sensitivity score
The answer should be a number; do not append a unit.

# Molecule, selective drug sensitivity score
rows = [
    ("C=CC(=O)N1CC/C(=C\\c2ccc(F)c([N+](=O)[O-])c2)C(=O)/C(=C/c2ccc(F)c([N+](=O)[O-])c2)C1 [VLX1570] (top concentration 10000 nM)", -8.52),
]

Quick check: selective drug sensitivity score of CON(C)C(=O)N1N=C(c2cc(F)ccc2F)S[C@@]1(CCCN)c1ccccc1 [Filanesib] (top concentration 1000 nM) ? 17.7

# iterate: O=C(CCCCCCNC(=O)c1cnc(N(c2ccccc2)c2ccccc2)nc1)NO [Rocilinostat] (top concentration 10000 nM) 2.74

# iterate: NC(=O)/C(=C/n1cnc(-c2cc(C(F)(F)F)cc(C(F)(F)F)c2)n1)c1cncnc1 [Eltanexor] (top concentration 10000 nM) 9.76
